# ASSAY_COMMENT: chemical genetic growth profiling, strain panel (AID 1159580);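 also: tested at 20 µM; growth read once vehicle control cultures reached saturation at 30 °C; lower values mean less growth of the strain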
# TEST_SETTINGS: S. cerevisiae deletion strains, growth OD, locus YFR019W, strain FAB1
The whole screen tested about 5,500 compounds, of which about 2,000 (36%) were called active. Not shown: some 18% with an inconclusive outcome. Rule as the data show it: active = normalized growth mostly below about 0.91 (no sharp cut-off); inconclusive = no clear call, values can overlap the other calls; inactive = mostly above about 0.92. The list shows a part of the results.
Just give me one of these, please: active, inactive

CCOC(=O)NC(=S)Nc1ccc(C(C)(C)C)cc1NC(=S)NC(=O)OCC | inactive
N/C(=N/OC(=O)c1ccc([N+](=O)[O-])cc1)c1c(Cl)cccc1Cl | inactive
COc1ccc(Br)c(C(=O)/C(C#N)=C/c2cccs2)c1 | active

Q: Called result for "O=C1Nc2ccccc2/C1=C\c1cccc2ccccc12"
Result: inactive

Q: Now the same for "CN(C)/C=C1\CSc2ccc(Cl)cc2C1=O"
Result: active

Q: Now the same for "N/C(=N/OC(=O)c1cnn(-c2ccc([N+](=O)[O-])cc2)c1C(F)(F)F)c1ccc(Cl)cc1"
Result: inactive

Q: Now the same for OC(COCc1ccccc1)Cn1c2ccccc2c2ccccc21 (centres undefined)
Result: inactive

Q: Now the same for "O=C1Nc2ccccc2/C1=C\c1c[nH]c2ccccc12"
Result: active

Q: Now the same for "CC(C)(C)NC(=S)N/N=C\c1cc(Br)c(O)c(Br)c1"
Result: inactive

Q: Now the same for "O=C(NC(=S)NNc1ncc(C(F)(F)F)cc1Cl)c1cccs1"
Result: active

Q: Now the same for "ONC(=Nc1ccccc1Cl)c1ccccc1Cl"
Result: active

Q: Now the same for "FC(F)(F)Oc1ccc(OCc2n[nH]c(=S)n2-c2ccc(Cl)cc2)cc1"
Result: inactive

Q: Now the same for "O=C(OCc1ccccc1Br)c1cc([N+](=O)[O-])cc([N+](=O)[O-])c1"
Result: inactive

Q: Now the same for "CO/N=C1/CC(C)(C)Cc2c(-c3ccn(C(=O)Nc4cccc(Cl)c4)n3)sc(SC)c21"
Result: inactive

Q: Now the same for "O=S(=O)(c1cc(Cl)ccc1Cl)N1CCc2ccccc2C1"
Result: inactive

Q: Now the same for "N#Cc1nccnc1N1CCN(C(=O)Nc2cc(Cl)cc(Cl)c2)CC1"
Result: inactive

Q: Now the same for "O=S(=O)(Nc1ccccc1Sc1c(Cl)cncc1Cl)c1ccc(Cl)cc1"
Result: inactive

Q: Now the same for "O=C(NNc1cc(C(F)(F)F)cc(C(F)(F)F)c1)c1cnc2n(c1=O)CCS2"
Result: inactive

Q: Now the same for "Cc1cc(Br)c(O)c(/C=N\NC(=S)NC(C)(C)C)c1"
Result: inactive
